Entries annotated with measured EC50
# subject.of.test: FXR ligand binding domain (Homo sapiens)
# Sequence (Q96RI1 187-472 isoform Q96RI1-2): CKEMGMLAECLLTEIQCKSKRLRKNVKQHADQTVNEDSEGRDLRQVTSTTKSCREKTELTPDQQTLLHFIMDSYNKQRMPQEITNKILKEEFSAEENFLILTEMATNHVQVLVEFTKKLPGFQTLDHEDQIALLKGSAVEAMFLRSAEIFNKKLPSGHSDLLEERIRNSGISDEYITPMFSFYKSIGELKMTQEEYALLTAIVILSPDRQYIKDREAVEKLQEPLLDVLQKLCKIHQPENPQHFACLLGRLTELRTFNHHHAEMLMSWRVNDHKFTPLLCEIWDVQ
# test.summary: Mammalian One Hybrid (M1H) assay, Gal4 promoter driven transactivation in HEK293 cells
# test.parameters: Gal4-FXR-LBD luciferase reporter, 16 h
Numeric only. Scale: nM

Known EC50 results, listed for orientation:
molecule	EC50 (nM)
Cc1onc(-c2c(Cl)cccc2Cl)c1CO[C@H]1C[C@H]2CC[C@@H](C1)[C@]2(O)c1nc2ccc(C(=O)O)cc2s1 [Example 11-38]	460
O=C(O)c1ccc(C2(O)C[C@H]3CC(OCc4c(-c5c(Cl)cccc5Cl)noc4C4CC4)C[C@H]3C2)c(F)c1 (stereo partly drawn) [Example 11-47]	99

# ---- query molecule ----
### Prompt For the molecule shown here, O=C(O)c1cc2sc([C@]3(O)CC[C@@H](OCc4c(-c5ccccc5OC(F)F)noc4C4CC4)CC3)nc2cc1F [Example 11-19] , give the reported EC50.
### Response 2500

---

# subject.of.test: human FXR alpha ligand binding domain (Homo sapiens)
# test.summary: FRET activity assay (ligand mediated cofactor peptide interaction, LANCE)
# test.parameters: GST-FXR-LBD / biotinylated SRC-1 peptide (676-700), read-out: F EC50
metric.name: EC50 (nM)
Numeric only. Scale: nM

compound	EC50 (nM)
CC1(C)C[C@@H](OCc2c(-c3c(Cl)cccc3Cl)noc2C2CC2)CC[C@]1(O)c1nc2c(F)cc(C(=O)O)cc2s1 (racemic)	120
O=C(O)c1cccc2nc([C@]3(O)CC[C@@H](OCc4c(-c5c(Cl)cccc5Cl)noc4C4CC4)CC3)sc12	17

# ---- query compound ----
### Prompt For the compound shown here, "O=C(O)c1ccc2nc([C@]3(O)CC[C@@H](OCc4c(-c5ccccc5C(F)F)noc4C4CC4)CC3)sc2c1" , give the reported EC50.
### Response 1500

---

Entries annotated with measured log10 of EC50
# subject.of.test: human FXR alpha ligand binding domain (Homo sapiens)
# test.summary: FRET activity assay (ligand mediated cofactor peptide interaction, LANCE)
# test.parameters: GST-FXR-LBD / biotinylated SRC-1 peptide (676-700), read-out: F EC50
Field: value | Transform: log10 | Quantity: EC50 | Unit: nM

Known log10 of EC50 results, listed for orientation:
compound	metric.name	measured
O=C(O)c1cnc2cc([C@]3(O)CC[C@@H](OCc4c(-c5c(Cl)cccc5Cl)noc4C4CC4)CC3)ccc2c1 [Example 11-43]	log10 of EC50	1.20
O=Cc1nsc2ccc([C@]3(O)CC[C@@H](OCc4c(-c5c(Cl)cccc5Cl)noc4C4CC4)CC3)cc12 [Example 32]	log10 of EC50	2.28
O=C(O)c1ccnc2ccc([C@]3(O)CC[C@@H](OCc4c(-c5c(Cl)cccc5Cl)noc4C4CC4)CC3)cc12 [Example 30]	log10 of EC50	2.28
O[C@@]1(c2nc3ccccc3s2)[C@@H]2CC3C[C@H]1C[C@](OCc1c(-c4c(Cl)cccc4Cl)noc1C1CC1)(C3)C2 [Example 24b]	log10 of EC50	2.38

### Prompt For the compound shown here, O=C(NCCS(=O)(=O)O)c1cc(F)c2nc([C@]3(O)[C@@H]4CC[C@H]3C[C@H](OCc3c(-c5c(Cl)cccc5Cl)noc3C3CC3)C4)sc2c1 [Example 39] , give the reported log10 of EC50.
### Response 0.51

### Prompt For the compound shown here, O[C@]1(c2nc3c(F)cc(-c4nnn[nH]4)cc3s2)CC[C@H](OCc2c(-c3c(Cl)cccc3Cl)noc2C2CC2)CC1 [Example 21] , give the reported log10 of EC50.
### Response 1.81

### Prompt For the compound shown here, O=C(O)c1ccnc([C@]2(O)CC[C@@H](OCc3c(-c4c(Cl)cccc4Cl)noc3C3CC3)CC2)c1 [Example 11-6] , give the reported log10 of EC50.
### Response 1.60

### Prompt For the compound shown here, CC(C)(O)c1onc(-c2c(Cl)cccc2Cl)c1CO[C@@H]1C[C@H]2CC[C@@H](C1)[C@]2(O)c1nc2c(F)cc(C(=O)O)cc2s1 [Example 11-56] , give the reported log10 of EC50.
### Response 1.36

### Prompt For the compound shown here, Cc1cccc(C)c1OCc1noc(C2CC2)c1CO[C@@H]1C[C@H]2CC[C@@H](C1)[C@]2(O)c1nc2c(F)cc(C(=O)O)cc2s1 [Example 11-50] , give the reported log10 of EC50.
### Response 1.91

### Prompt For the compound shown here, OCc1ccc(F)c([C@]2(O)CC[C@@H](OCc3c(-c4c(Cl)cccc4Cl)noc3C3CC3)CC2)c1 [Example 9-7] , give the reported log10 of EC50.
### Response 2.04

### Prompt For the compound shown here, Cc1onc(-c2c(Cl)cccc2Cl)c1CO[C@@H]1C[C@H]2CC[C@@H](C1)[C@]2(O)c1nc2ccc(C(=O)O)cc2s1 [Example 11-37] , give the reported log10 of EC50.
### Response 0.94

### Prompt For the compound shown here, O=C(O)C1(Oc2cc(F)cc([C@]3(O)[C@@H]4CC[C@H]3C[C@H](OCc3c(-c5c(Cl)cccc5Cl)noc3C3CC3)C4)c2)CC1 [Example 14-3] , give the reported log10 of EC50.
### Response 1.61

### Prompt For the compound shown here, O=C(O)CNC(=O)c1cc(F)c2nc([C@]3(O)[C@@H]4CC[C@H]3C[C@H](OCc3c(-c5c(Cl)cccc5Cl)noc3C3CC3)C4)sc2c1 [Example 38] , give the reported log10 of EC50.
### Response 0.48

### Prompt For the compound shown here, O=C(O)c1c(F)cc2nc([C@]3(O)CC[C@@H](OCc4c(-c5c(Cl)cccc5Cl)noc4C4CC4)CC3)sc2c1F [Example 14-2] , give the reported log10 of EC50.
### Response 1.51

### Prompt For the compound shown here, CC(C)(F)c1onc(-c2c(Cl)cccc2Cl)c1CO[C@@H]1C[C@H]2CC[C@@H](C1)[C@]2(O)c1nc2c(F)cc(C(=O)O)cc2s1 [Example 11-52] , give the reported log10 of EC50.
### Response 0.69

### Prompt For the compound shown here, O=C(O)c1ccc2nc([C@]3(O)CC[C@@H](OCc4c(-c5c(Cl)cncc5Cl)noc4C4CC4)CC3)sc2c1 [Example 11-16] , give the reported log10 of EC50.
### Response 1.92

### Prompt For the compound shown here, O=C(O)c1ccc2nc([C@]3(O)CC[C@@H](OCc4c(C5CC5)cnn4-c4ccccc4OC(F)F)CC3)sc2c1 [Example 11-17] , give the reported log10 of EC50.
### Response 2.99

### Prompt For the compound shown here, O=C(O)c1cc(F)c2nc([C@]3(O)CC[C@@H](OCc4c(-c5ccccc5OC(F)F)noc4C4CC4)CC3)sc2c1 [Example 11-7] , give the reported log10 of EC50.
### Response 2.18

### Prompt For the compound shown here, O=C(O)c1ccc2sc([C@]3(O)CC[C@H](OCc4c(-c5c(Cl)cccc5Cl)noc4C4CC4)CC3)nc2c1 [Example 5] , give the reported log10 of EC50.
### Response 2.79

### Prompt For the compound shown here, O=C(O)c1cc(F)c2nc([C@]3(O)CC[C@@H](OCc4c(-c5c(Cl)cccc5Cl)noc4C4CC4)CC3)sc2c1 [Example 11-31] , give the reported log10 of EC50.
### Response 1.70

---

# subject.of.test: FXR ligand binding domain (Homo sapiens)
# Sequence (Q96RI1 187-472 isoform Q96RI1-2): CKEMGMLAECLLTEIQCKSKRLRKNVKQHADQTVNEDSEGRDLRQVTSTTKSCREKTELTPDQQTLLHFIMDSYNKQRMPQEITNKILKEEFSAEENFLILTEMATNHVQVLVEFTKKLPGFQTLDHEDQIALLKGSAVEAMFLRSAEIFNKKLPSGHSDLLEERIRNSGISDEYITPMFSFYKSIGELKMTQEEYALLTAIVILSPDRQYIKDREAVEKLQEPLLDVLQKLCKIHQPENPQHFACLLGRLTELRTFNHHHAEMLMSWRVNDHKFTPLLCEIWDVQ
# test.summary: Mammalian One Hybrid (M1H) assay, Gal4 promoter driven transactivation in HEK293 cells
# test.parameters: Gal4-FXR-LBD luciferase reporter, 16 h
// NB: equality with 300 nM counts as 0; only EC50 strictly below is 1

### Prompt State whether 300 nM exceeds EC50 recorded for "O=C(O)c1ccnc2ccc([C@]3(O)CC[C@@H](OCc4c(-c5c(Cl)cccc5Cl)noc4C4CC4)CC3)cc12" .
### Response 0

### Prompt State whether 300 nM exceeds EC50 recorded for "CC(C)(Cc1cccc([C@]2(O)[C@@H]3CC[C@H]2C[C@H](OCc2c(-c4c(Cl)cccc4Cl)noc2C2CC2)C3)c1)C(=O)O" .
### Response 0

### Prompt State whether 300 nM exceeds EC50 recorded for "CC(C)n1nc(C(=O)O)c2ccc([C@]3(O)CC[C@@H](OCc4c(-c5c(Cl)cccc5Cl)noc4C4CC4)CC3)cc21" .
### Response 1

### Prompt State whether 300 nM exceeds EC50 recorded for "O=C(O)c1ccc2nc([C@]3(O)CC[C@@H](OCc4c(C5CC5)cnn4-c4c(Cl)cccc4Cl)CC3)sc2c1" .
### Response 0

### Prompt State whether 300 nM exceeds EC50 recorded for "O[C@@]1(c2nc3ccc(CN4CCOCC4)cc3s2)[C@@H]2CC[C@H]1C[C@H](OCc1c(-c3c(Cl)cccc3Cl)noc1C1CC1)C2" .
### Response 1

### Prompt State whether 300 nM exceeds EC50 recorded for "O=C(O)c1ccnc2cc([C@]3(O)CC[C@@H](OCc4c(-c5c(Cl)cccc5Cl)noc4C4CC4)CC3)ccc12" .
### Response 0

### Prompt State whether 300 nM exceeds EC50 recorded for "O=C(O)c1ccc2nc([C@]3(O)CC[C@H](OCc4c(C5CCC(F)(F)CC5)noc4C4CC4)CC3)sc2c1" .
### Response 0

### Prompt State whether 300 nM exceeds EC50 recorded for "O=C(O)c1ccc2nc([C@]3(O)CC[C@@H](OCc4c(C5CCC6(CC5)CC6)noc4C4CC4)CC3)sc2c1" .
### Response 0

### Prompt State whether 300 nM exceeds EC50 recorded for "O=C(O)Cc1csc([C@]2(O)[C@@H]3CC[C@H]2C[C@H](OCc2c(-c4c(Cl)cccc4Cl)noc2C2CC2)C3)n1" .
### Response 1

### Prompt State whether 300 nM exceeds EC50 recorded for "O=C(O)c1ccc2nc([C@]3(O)CC[C@@H](OCc4c(-c5ccccc5C5CC5)noc4C4CC4)CC3)sc2c1" .
### Response 0

### Prompt State whether 300 nM exceeds EC50 recorded for "O=C(O)c1ccc2nc([C@@]3(O)[C@@H]4CC5C[C@H]3C[C@](OCc3c(-c6c(Cl)cccc6Cl)noc3C3CC3)(C5)C4)sc2c1" .
### Response 1

### Prompt State whether 300 nM exceeds EC50 recorded for "O[C@]1(c2nc3c(F)cc(-c4nnn[nH]4)cc3s2)CC[C@H](OCc2c(-c3c(Cl)cccc3Cl)noc2C2CC2)CC1" .
### Response 0

### Prompt State whether 300 nM exceeds EC50 recorded for "O=C(O)c1ccc2nc([C@]3(O)CC[C@@H](OCc4c(-c5ccccc5OC(F)F)noc4C4CC4)CC3)sc2c1" .
### Response 0
